Entries annotated with measured Plant response rating, Pigweed, Palmer
- Test system: pigweed, palmer (palmer pigweed, Amaranthus palmeri)
- ASSAY_EXPLANATION: Test E greenhouse herbicide test, pre- and postemergence
- Type: in vivo
- CONDITION_SUMMARY: Preemergence, 250 g ai/ha; visual, scale 0 no effect to 100 complete control
Enter a number only.

Recorded Plant response rating, Pigweed, Palmer, per entry:
COMPOUND: Cc1ccc2ccccc2c1-c1c(OC(=O)OC(C)C)c(C)nn(C)c1=O [Compound 72]
Plant response rating, Pigweed, Palmer: 90
//
COMPOUND: Cn1nc(Br)c(O)c(-c2cccc3ccccc23)c1=O [Compound 20]
Plant response rating, Pigweed, Palmer: 70
//
COMPOUND: CCc1sc2c(C)cc(C)cc2c1-c1c(O)c(C)nn(C)c1=O [Compound 57]
Plant response rating, Pigweed, Palmer: 60
//
COMPOUND: Cc1cc(C)c2sc(C)c(-c3c(O)c(C)nn(C)c3=O)c2c1 [Compound 2]
Plant response rating, Pigweed, Palmer: 100

Now for another entry.
Query: Specify Plant response rating, Pigweed, Palmer for Cc1cc2ccccc2c(-c2c(O)c(C)nn(C)c2=O)c1C [Compound 34] and stop.
Response: 90
